Values were extracted from ChEMBL document CHEMBL3988442.

# Test system: Mycobacterium tuberculosis
# Run description: Cornell M. t heat shock assay; note: in the data most compounds retested in dose-response had high values
# Type: functional, organism-based
# Design: dose or concentration left out as unconfirmed
In all, about 69,000 compounds went through this assay and about 950 (1.4%) showed an effect of 50% or more. The list comes from a sample in which strong results are over-represented; it also holds close analogues and randomly drawn compounds.
Property: Percent Effect

Please review the entries below; each comes with its answer.
# Compound, Experimental value
rows = [
    ("O=C(CCc1ccccc1)NCC1CCN(Cc2ccsc2)CC1", "-20.67%"),
    ("O=C(c1cccnc1SCc1ccccc1)N1CC[C@@H](O)C1", "7.782%"),
    ("O=C(c1cccnc1Oc1ccc(Cl)cc1)N1CC[C@@H](O)C1", "54.07%"),
    ("O=C(CCc1ccsc1)NCC1CCN(c2ccccc2)C1 (stereo not given)", "105.9%"),
]

Record COc1cc(COCC2CCN(Cc3cccnc3)CC2)cc(OC)c1.O=C(O)C(=O)O ; system Mycobacterium tuberculosis; Percent Effect = -22.42%

Record Cc1noc(C)c1CN1C[C@@H]2COC[C@@H](C(=O)N3CCCCO3)[C@@H]2C1.O=C(O)C(F)(F)F ; system Mycobacterium tuberculosis; Percent Effect = -3.514%

Record O=C(c1nn(-c2ccccc2F)cc1O)N1CCCC1 ; system Mycobacterium tuberculosis; Percent Effect = 42.43%

Record O=C(O)C(F)(F)F.O=C(O)C(F)(F)F.O=C(O)C(F)(F)F.O=C1C[C@H]2[C@@H](CCN2Cc2ccccn2)N1CCN1CCOCC1 ; system Mycobacterium tuberculosis; Percent Effect = -15.17%

Record COc1ccc(OC)c(C2CCN(c3ccc4cc[nH]c4n3)C2)c1 (stereo not given) ; system Mycobacterium tuberculosis; Percent Effect = 103.8%

Record CCOC(=O)CNC(=O)c1cccnc1Oc1ccc(Cl)cc1 ; system Mycobacterium tuberculosis; Percent Effect = -21.74%
